Target or system: PIK3Cβ_h (Homo sapiens (Human), UniProt P42338)
Sequence (P42338 whole entry): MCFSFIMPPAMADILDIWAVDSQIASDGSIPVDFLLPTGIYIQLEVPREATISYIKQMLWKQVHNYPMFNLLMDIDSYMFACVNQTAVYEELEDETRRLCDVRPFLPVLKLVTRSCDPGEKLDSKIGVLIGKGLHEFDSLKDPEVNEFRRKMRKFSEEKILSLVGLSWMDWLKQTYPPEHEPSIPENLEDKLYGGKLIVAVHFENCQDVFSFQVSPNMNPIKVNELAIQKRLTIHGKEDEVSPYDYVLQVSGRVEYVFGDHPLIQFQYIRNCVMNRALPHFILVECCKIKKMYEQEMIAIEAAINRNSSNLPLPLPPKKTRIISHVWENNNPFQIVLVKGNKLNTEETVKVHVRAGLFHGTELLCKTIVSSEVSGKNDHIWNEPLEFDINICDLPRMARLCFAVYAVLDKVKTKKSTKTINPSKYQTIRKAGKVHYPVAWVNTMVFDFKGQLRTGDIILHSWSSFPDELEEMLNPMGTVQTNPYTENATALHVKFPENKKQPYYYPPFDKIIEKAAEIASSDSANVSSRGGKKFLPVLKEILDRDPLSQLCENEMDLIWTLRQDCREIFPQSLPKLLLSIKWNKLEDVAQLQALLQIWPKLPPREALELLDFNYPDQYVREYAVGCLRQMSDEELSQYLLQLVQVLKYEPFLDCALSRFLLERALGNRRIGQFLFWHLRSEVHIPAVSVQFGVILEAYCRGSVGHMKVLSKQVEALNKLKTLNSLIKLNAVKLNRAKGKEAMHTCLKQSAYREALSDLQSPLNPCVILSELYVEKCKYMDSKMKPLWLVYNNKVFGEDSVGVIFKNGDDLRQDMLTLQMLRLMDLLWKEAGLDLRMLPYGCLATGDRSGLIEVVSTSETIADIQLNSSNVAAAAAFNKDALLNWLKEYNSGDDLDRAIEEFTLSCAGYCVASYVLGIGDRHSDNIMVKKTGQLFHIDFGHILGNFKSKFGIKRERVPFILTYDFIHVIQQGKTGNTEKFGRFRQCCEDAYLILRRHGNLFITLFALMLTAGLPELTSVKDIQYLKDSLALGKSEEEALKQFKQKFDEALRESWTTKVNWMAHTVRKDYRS
Field: label. Allowed values: Satisfied (Kd < 8 nM) or Not satisfied (Kd >= 8 nM).

>>> print(df.to_string())
                                    compound          group
 0  Cc1nc2c(C(=O)O)cc(N3CCOCC3)nn2c1Nc1ccccc1N1CCOCC1 [Compound 86]  Not satisfied
 1  Cc1nc2c(-c3cnc[nH]3)cc(N3CCOCC3)nn2c1Nc1cccc(C(F)(F)F)c1CN1CCOCC1 [Compound 41]      Satisfied
 2  CC(=O)NCc1nc2c(-c3ncc[nH]3)cc(N3CCOCC3)nn2c1Cc1cccc(C(F)(F)F)c1C [Compound 18]      Satisfied
 3  Cc1nc2c(N)cc(N3CCOCC3)nn2c1Cc1cccc(F)c1C1CCN(CCO)CC1 [Compound 107]  Not satisfied
 4  Cc1nc2c(N)cc(N3CCOCC3)nn2c1Nc1cccc(C(F)(F)F)c1CN1CCC2(C1)CS(=O)(=O)C2 [Compound 49]  Not satisfied
 5  Cc1nc2c(N)cc(N3CCOCC3)nn2c1Nc1cccc(F)c1CNC(C)CO (centres unmarked) [Compound 71]      Satisfied
 6  Cc1c(Cc2c(CCO)nc3c(N)cc(N4CCOCC4)nn23)cccc1C(F)(F)F [Compound 23]      Satisfied
 7  Cc1nc2c(N)cc(N3CCOCC3)nn2c1Nc1cccc(C(F)(F)F)c1CN1CCCC1 [Compound 62]  Not satisfied
 8  Cc1nc2c(C(N)=O)cc(N3CCOCC3)nn2c1Cc1cccc(Cl)c1C [Compound 11]  Not satisfied
 9  Cc1c(Nc2c(CO)nc3c(C(N)=O)cc(N4CCOCC4)nn23)cccc1C(F)(F)F [Compound 37]      Satisfied
10  Cc1nc2c(N)cc(N3CCOCC3)nn2c1Cc1cccc(F)c1C1CCNCC1 [Compound 106]      Satisfied
11  Cc1c(Cc2c(CO)nc3c(C(=O)O)cc(N4CCOCC4)nn23)cccc1C(F)(F)F [Compound 22]      Satisfied
12  Cc1c(Cc2c(CO)nc3c(N)cc(N4CCOCC4)nn23)cccc1C(F)(F)F [Compound 14b]      Satisfied
13  CCc1c(F)cccc1Cc1c(CO)nc2c(N)cc(N3CCOCC3)nn12 [Compound 99]  Not satisfied
14  Cc1nc2c(N)cc(N3CCOCC3)nn2c1Nc1cccc(C(F)(F)F)c1CN1CCC(S(C)(=O)=O)C1 (centres unmarked) [Compound 47]      Satisfied
15  Cc1cccc(Cc2c(C)nc3c(C(=O)O)cc(N4CCOCC4)nn23)c1C [Compound 12]      Satisfied
16  CCC(C)C(N)C(=O)OCc1nc2c(N)cc(N3CCOCC3)nn2c1Cc1cccc(C(F)(F)F)c1C (centres unmarked) [Compound 81]      Satisfied

* * *

Target or system: PIK3Cβ_h (Homo sapiens (Human))
pKd: −log10 of the molar value.
Recorded pKd values for a group of molecules are listed next.
Measured metric: pKd

>>> print(df.to_string())
                                   molecule  observed_value
0  Cc1nc2c(-c3cnc[nH]3)cc(N3CCOCC3)nn2c1Nc1cccc(C(F)(F)F)c1CN1CC(O)C1            8.52
1  Cc1c(Cc2c(CF)nc3c(C(N)=O)cc(N4CCOCC4)nn23)cccc1C(F)(F)F            8.00
2  Cc1c(Cc2c(COC(=O)C(C)N)nc3c(N)cc(N4CCOCC4)nn23)cccc1C(F)(F)F (centres unmarked)            9.10
3  Cc1nc2c(N)cc(N3CCOCC3)nn2c1Nc1cccc(C(F)(F)F)c1CN1CCN(C)CC1            9.40
4  Cc1nc2c(-c3ncc[nH]3)cc(N3CCOCC3)nn2c1Cc1cccc(C(F)(F)F)c1C            7.82
5  Cc1nc2c(N)cc(N3CCOCC3)nn2c1Cc1cccc2c1CNCC2            8.05
6  Cc1nc2c(N)cc(N3CCOCC3)nn2c1Nc1cccc(C(F)(F)F)c1C            8.22
7  Cc1cccc(Nc2c(C)nc3c(N)cc(N4CCOCC4)nn23)c1C            8.96

* * *

Test system: Akt phosphorylated at Thr308 in PC-3 cells
Test description: Cellular assay: phosphorylation of Akt (Thr308) in PC-3 cells, MSD ELISA
Format: cell-based
Run parameters: Homo sapiens, PC-3, 1 h, 60 min incubation with compound, read-out: IC50 pAkt_Thr308
pIC50: −log10 of the molar value.
Recorded pIC50 values for a group of compounds are listed next.
Measured metric: pIC50

>>> print(df.to_string())
                                   compound  censoring_sign  observed_value
0  Cc1nc2c(N)cc(N3CCOCC3)nn2c1Cc1cccc(F)c1CNC(C)CO (centres unmarked)               <            6.42
1  Cc1c(Cc2c(CF)nc3c(C(N)=O)cc(N4CCOCC4)nn23)cccc1C(F)(F)F               =            6.81
2  Cc1nc2c(N)cc(N3CCOCC3)nn2c1Cc1cccc(F)c1CO               =            6.38
3  Cc1c(Cl)cccc1Cc1c(CO)nc2c(-c3c[nH]cn3)cc(N3CCOCC3)nn12               =            7.13
4  Cc1c(Cc2c(CNCCS(C)(=O)=O)nc3c(N)cc(N4CCOCC4)nn23)cccc1C(F)(F)F               =            6.73

* * *

Target or system: UniProt O00329
Sequence (O00329 whole entry): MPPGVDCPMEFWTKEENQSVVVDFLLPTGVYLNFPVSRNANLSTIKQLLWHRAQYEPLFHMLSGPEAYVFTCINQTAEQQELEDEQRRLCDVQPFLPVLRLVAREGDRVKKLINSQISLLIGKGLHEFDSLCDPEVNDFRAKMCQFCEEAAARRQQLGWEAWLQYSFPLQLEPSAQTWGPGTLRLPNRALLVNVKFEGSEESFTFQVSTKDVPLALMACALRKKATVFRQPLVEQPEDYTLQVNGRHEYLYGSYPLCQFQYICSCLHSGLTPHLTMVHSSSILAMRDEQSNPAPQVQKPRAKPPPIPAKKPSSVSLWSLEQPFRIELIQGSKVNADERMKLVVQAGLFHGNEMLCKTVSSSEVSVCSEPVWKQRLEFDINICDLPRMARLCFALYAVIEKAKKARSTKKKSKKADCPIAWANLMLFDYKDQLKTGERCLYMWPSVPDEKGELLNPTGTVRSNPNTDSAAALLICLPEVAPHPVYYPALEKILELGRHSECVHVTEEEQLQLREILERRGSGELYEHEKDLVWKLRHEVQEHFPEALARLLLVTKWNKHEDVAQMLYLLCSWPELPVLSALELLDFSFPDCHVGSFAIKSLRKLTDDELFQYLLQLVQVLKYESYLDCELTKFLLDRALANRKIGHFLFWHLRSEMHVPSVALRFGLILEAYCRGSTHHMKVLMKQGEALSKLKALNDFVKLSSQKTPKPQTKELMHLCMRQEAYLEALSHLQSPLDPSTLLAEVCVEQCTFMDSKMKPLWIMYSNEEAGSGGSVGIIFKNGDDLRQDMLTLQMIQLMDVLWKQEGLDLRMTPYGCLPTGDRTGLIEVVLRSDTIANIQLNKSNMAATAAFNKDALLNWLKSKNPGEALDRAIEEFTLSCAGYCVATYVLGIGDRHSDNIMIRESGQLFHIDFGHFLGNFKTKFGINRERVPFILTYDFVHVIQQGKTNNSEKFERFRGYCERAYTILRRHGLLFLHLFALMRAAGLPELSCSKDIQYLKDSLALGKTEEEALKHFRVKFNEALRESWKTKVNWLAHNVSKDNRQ
Test description: KINOMEscan enzyme binding assay, PIK3Cδ
Run parameters: DiscoveRx
Each record's Kd is compared with bottom end: < 70 nM; midrange: ≥ 70 nM and < 400 nM; top end: ≥ 400 nM to give its class.

                                    compound       group
 0  Cc1c(Cc2c(CO)nc3c(N)cc(N4CCOCC4)nn23)cccc1C(F)(F)F [Compound 14b]    midrange
 1  Cc1nc2c(N)cc(N3CCOCC3)nn2c1Cc1cccc(F)c1C1CCNCC1    midrange
 2  Cc1nc2c(N)cc(N3CCOCC3)nn2c1Nc1cccc(C(F)(F)F)c1CNC(C)CO (centres unmarked) [Compound 55]  bottom end
 3  Cc1nc2c(N)cc(N3CCOCC3)nn2c1Nc1cccc(C(F)(F)F)c1CN1CCC(O)C1 (centres unmarked) [Compound 78]  bottom end
 4  Cc1nc2c(N)cc(N3CCOCC3)nn2c1Nc1cccc(C(F)(F)F)c1CN1CCS(=O)(=O)CC1  bottom end
 5  Cc1c(Cc2c(COC(=O)C(N)Cc3ccccc3)nc3c(N)cc(N4CCOCC4)nn23)cccc1C(F)(F)F (centres unmarked)     top end
 6  Cc1nc2c(C(N)=O)cc(N3CCOCC3)nn2c1Nc1cccc(C(F)(F)F)c1C    midrange
 7  Cc1c(Cc2c(CF)nc3c(N)cc(N4CCOCC4)nn23)cccc1C(F)(F)F     top end
 8  Cc1c(Cc2c(CO)nc3c(N)cc(N4CCOC(C)C4)nn23)cccc1C(F)(F)F (centres unmarked)     top end
 9  Cc1nc2c(C(=O)O)cc(N3CCOCC3)nn2c1Nc1ccccc1N1CCOCC1    midrange
10  Cc1c(F)cccc1Cc1c(CO)nc2c(N)cc(N3CCOCC3)nn12    midrange
11  Cc1nc2c(N)cc(N3CCOCC3)nn2c1Nc1cccc(C(F)(F)F)c1C    midrange
12  Cc1nc2c(-c3ncc[nH]3)cc(N3CCOCC3)nn2c1Cc1cccc(C(F)(F)F)c1C     top end
13  Cc1nc2c(N)cc(N3CCOCC3)nn2c1Nc1cccc(C(F)(F)F)c1CN1CC(S(C)(=O)=O)C1  bottom end
14  CC(CO)NCc1c(F)cccc1Cc1c(CO)nc2c(N)cc(N3CCOCC3)nn12 (centres unmarked)     top end

* * *

Test system: Akt phosphorylated at Thr308 in PC-3 cells
Test description: Cellular assay: phosphorylation of Akt (Thr308) in PC-3 cells, MSD ELISA
Format: cell-based
Run parameters: Homo sapiens, PC-3, 1 h, 60 min incubation with compound, read-out: IC50 pAkt_Thr308
Recorded IC50 values for a group of molecules are listed next.
Measured metric: IC50 (nM)

                                   molecule                          target_or_system  measured_metric  censoring_sign  observed_value
0  Nc1cc(N2CCOCC2)nn2c(Cc3cccc(C(F)(F)F)c3C3CCN(CCO)CC3)c(CO)nc12 [Compound 105]  Akt phosphorylated at Thr308 in PC-3 cells             IC50               =              85
1  Cc1c(Cc2c(C(O)CN)nc3c(N)cc(N4CCOCC4)nn23)cccc1C(F)(F)F (centres unmarked) [Compound 91]  Akt phosphorylated at Thr308 in PC-3 cells             IC50               >             513
2  Cc1c(Cc2c(CCO)nc3c(-c4c[nH]cn4)cc(N4CCOCC4)nn23)cccc1C(F)(F)F [Compound 24]  Akt phosphorylated at Thr308 in PC-3 cells             IC50               =              37
3  Cc1c(Cc2c(CN(C)CCS(C)(=O)=O)nc3c(N)cc(N4CCOCC4)nn23)cccc1C(F)(F)F [Compound 1]  Akt phosphorylated at Thr308 in PC-3 cells             IC50               =              74
4  Cc1nc2c(N)cc(N3CCOCC3)nn2c1Nc1cccc(C(F)(F)F)c1CN1CCC(O)C1 (centres unmarked) [Compound 74]  Akt phosphorylated at Thr308 in PC-3 cells             IC50               =              26
5  Cc1c(Cc2c(CCO)nc3c(N)cc(N4CCOCC4)nn23)cccc1C(F)(F)F [Compound 23]  Akt phosphorylated at Thr308 in PC-3 cells             IC50               =              49
6  Cc1nc2c(N)cc(N3CCOCC3)nn2c1Nc1ccccc1CN1CCOCC1 [Compound 69]  Akt phosphorylated at Thr308 in PC-3 cells             IC50               =             151
